Biological target: SlitOBP11 (Spodoptera litura, UniProt A0A9J7E9A4)
Construct: gene LOC111356549; mature protein, predicted 23-residue signal peptide removed; ORF 465 bp, given as 155 aa; pET32a(+) (BamHI/HindIII), E. coli BL21(DE3); Ni-NTA purified, tag cleaved with enterokinase
Sequence (A0A9J7E9A4 24-154): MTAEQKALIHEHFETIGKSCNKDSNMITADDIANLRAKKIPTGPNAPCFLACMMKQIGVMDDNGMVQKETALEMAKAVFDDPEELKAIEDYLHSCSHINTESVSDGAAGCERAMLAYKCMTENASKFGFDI
Test: competitive displacement of 1-NPN fluorescence
Assay type: binding
Conditions: read-out: IC50 (μmol L^-1); 2 μM protein, 2 μM 1-NPN, 30 mM Tris-HCl pH 7.4, 4°C
pIC50: −log10 of the molar value.
measure-name: pIC50

# pIC50 of C/C=C/C(=O)O [Crotonic acid] = < 4.30

###

Biological target: SlitOBP11 (Spodoptera litura)
Construct: gene LOC111356549; mature protein, predicted 23-residue signal peptide removed; ORF 465 bp, given as 155 aa; pET32a(+) (BamHI/HindIII), E. coli BL21(DE3); Ni-NTA purified, tag cleaved with enterokinase
Sequence (A0A9J7E9A4 24-154): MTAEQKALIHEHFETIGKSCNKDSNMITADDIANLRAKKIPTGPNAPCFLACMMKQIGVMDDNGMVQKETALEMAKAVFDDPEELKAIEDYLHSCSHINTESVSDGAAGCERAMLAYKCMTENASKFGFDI
Assay: competitive displacement of 1-NPN fluorescence
Format: binding
measure-name: IC50

CCCC/C=C\CCCCCCCCOC(C)=O [(Z)-9-tetradecenyl acetate, (Z)-9-Tetradecenyl acetate] : 11.2 µM
O=Cc1ccccc1 [Benzaldehyde] : > 50 µM
CCC(=O)O [Propanoic acid] : > 50 µM

# IC50 of CCCC(=O)O [Butyric acid] = > 50 µM

###

Molecular target: SlitOBP11 (Spodoptera litura)
Sequence (A0A9J7E9A4 24-154): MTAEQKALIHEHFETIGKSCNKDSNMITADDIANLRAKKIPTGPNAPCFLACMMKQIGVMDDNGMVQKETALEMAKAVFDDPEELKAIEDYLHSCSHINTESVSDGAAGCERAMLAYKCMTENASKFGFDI
measure-name: pKi
Give bare numbers, as −log10 of the molar value.

Use these answered entries as a reference point.
O=CCc1ccccc1 : 4.45
C/C=C/C/C=C\CCCCCCCCOC(C)=O [(Z, E)-9,12-tetradecadienyl acetate, (Z,E)-9,12-Tetradecadienyl acetate] : 4.84
CC(=O)OCCc1ccccc1 [Phenethyl acetate] : 4.37
CC/C=C/C=C\CCCCCCCCOC(C)=O [(Z, E)-9,11-tetradecadienyl acetate, (Z,E)-9,11-Tetradecadienyl acetate] : 4.86
CC/C=C/CCCCCCCCCCOC(C)=O [(E)-11-tetradecenly acetate, (E)-11-Tetradecenyl acetate] : 4.87

# pKi of CCCC/C=C\CCCCCCCCOC(C)=O [(Z)-9-tetradecenyl acetate, (Z)-9-Tetradecenyl acetate] = 5.00
